Where do these numbers come from? They come from the supplement of paper PMC9170038.

- Test system: MS2 coat protein
- protocol: apparent KD of MS2 coat protein; designed switch direction (-1 OFF switch, 1 ON switch): -1; higher = weaker reporter binding
- assay-context: input ligand: none
observation-type: apparent KD of MS2 coat protein (nM)
I only need the number, in nM, no unit after it.

// known answers, use as guide
GUCAGCUCGUCAGGAUAUACAUGCGUGCUUCGGCACGAAUUUAAGAUCACAUGAGGAUCACCCAUGUAGAAGGGACGAGCUGAU [ENG2/3-B2] (Eterna round: R96, puzzle: Exclusion NG 2); 600
AACCUACAUGAGGAUCACCCAUGUGAGGAUAUAUUGUUAUGGAUGUUAUUUUGUAGUGGUAGAAGGCGCGUGAU [JR_Exc1_Sub024] (Eterna round: R97, puzzle: Exclusion 1); 15.9
CUUAGUUGGUAAGGAUAUCCUACAUUAUUCUGACCCGUGCAAGCUACAUGAGGAUCACCCAUGUGGGAGAAGGUGCGUUAACGU [Design 7] (Eterna round: R96, puzzle: Exclusion NG 2); 46
GCUGUGAAUCAGGAUAUGCGGAUAAAGAGUGCCGCAGAAGGGAUAACAUGAGGAUCACCCAUGUUCCUGCAUGA [Eternabot (L2) Solution 99] (Eterna round: R97, puzzle: Exclusion 6); 20.9
UAGGCGUAAGGAUAUAUCUUUGGACGAGCGAGGGACCAGAGAUAGAAGGUACAUGAGGAUCACCCAUGUGGGUC [Eternabot (L1) Solution 41] (Eterna round: R97, puzzle: Exclusion 4); 64.9

Given item GGGUGACAUGAGGAUCACCCAUGUCAGGAUAUGGGCUCGGGCUCGAAAGGGUCUGGGUCUAGAAGGGACUGCCC [-36.1, -35.1 kcal, 22%A (-3 GC series)] (Eterna round: R97, puzzle: Exclusion 1) , the value recorded as its apparent KD of MS2 coat protein is 67

Given item AUCUACCGAGCAGGAUAUCCAGGCACAUGAGGAUCACCCAUGUCAGGGAGAGAAGUUGUUUGCGUGGAGAAGGGCUAUAAAUUA [Isdiatte] (Eterna round: R96, puzzle: Exclusion NG 2) , the value recorded as its apparent KD of MS2 coat protein is 162

Given item AGGAUGAGAGGAUAUACAAACGGUCCCACAAUCUCACGGGCACAUGAGGAUCACCCAUGUAGAAGGCUCAUUGG [EX2 B.28] (Eterna round: R97, puzzle: Exclusion 2) , the value recorded as its apparent KD of MS2 coat protein is 49.6

Given item CCGCUCCGUGUAGGAUAUCGGCGUACCCUGCGCCGAGAAGGACAUGAGGAUCACCCAUGUAUGUUAUUAUCACGCGUGGCGCAC [Design 74] (Eterna round: R96, puzzle: Exclusion NG 1) , the value recorded as its apparent KD of MS2 coat protein is 20.2

Given item CCCGGGAGUCAGGAUAUCUCCGAGGAGUAUCAGAGAGAAGGGACUACUUGAGGAUCACCCAAGUAGGUGUAAAA [Enleteerre] (Eterna round: R97, puzzle: Exclusion 6) , the value recorded as its apparent KD of MS2 coat protein is 20.2
